Molecular target: T1, ZIKV-VLP (Native Antigen Inc.) (Zika virus)
T1 construct: also called Zika VLP; ZVLP
Test: BLI binning on ZIKV-VLP; 1st mAb: Ab2
Recorded response of 2nd mAb, one value per entry.
reported-metric: response of 2nd mAb

binder | reported-metric | observed-result
anti-ZIKV antibody 270-12 (antibody, V domains shown, also called clone 270-12) VH: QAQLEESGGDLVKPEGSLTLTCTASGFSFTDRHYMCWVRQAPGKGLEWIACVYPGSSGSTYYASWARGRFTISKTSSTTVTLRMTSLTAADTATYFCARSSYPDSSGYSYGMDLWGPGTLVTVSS VL: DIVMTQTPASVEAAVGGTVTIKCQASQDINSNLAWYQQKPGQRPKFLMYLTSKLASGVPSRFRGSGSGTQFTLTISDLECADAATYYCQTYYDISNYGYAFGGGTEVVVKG | response of 2nd mAb | 3.5
anti-ZIKV antibody 78-2 (antibody, V domains shown, also called clone 78-2) VH: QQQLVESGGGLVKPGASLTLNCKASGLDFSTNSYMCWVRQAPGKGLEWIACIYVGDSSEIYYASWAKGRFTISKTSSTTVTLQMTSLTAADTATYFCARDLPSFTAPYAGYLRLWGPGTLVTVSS VL: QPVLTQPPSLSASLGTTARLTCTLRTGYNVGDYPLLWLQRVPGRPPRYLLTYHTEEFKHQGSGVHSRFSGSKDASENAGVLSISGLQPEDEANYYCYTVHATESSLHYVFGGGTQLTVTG | response of 2nd mAb | 2.46
anti-ZIKV antibody 11-3 (antibody, V domains shown, also called clone 11-3) VH: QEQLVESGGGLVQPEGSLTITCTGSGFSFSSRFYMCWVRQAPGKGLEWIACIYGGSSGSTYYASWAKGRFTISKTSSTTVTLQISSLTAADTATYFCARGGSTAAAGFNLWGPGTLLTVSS VL: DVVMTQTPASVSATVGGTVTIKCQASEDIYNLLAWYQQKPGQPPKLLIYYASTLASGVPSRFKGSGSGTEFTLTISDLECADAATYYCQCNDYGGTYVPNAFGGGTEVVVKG | response of 2nd mAb | 2.71
